# protocol.summary: qHTS drug screen for cell cycle checkpoint inhibitors in PARPi-resistant BRCA-mutant ovarian cancer cell lines. (AID 1963452)
# test.settings: PEO1/OlaR viability, CellTiter-Glo luminescence, 96 h; measured here: PEO1 parental Z-AUC; stronger effect = lower value
Consider the cut-off 0.5. If the recorded Z-AUC is strictly smaller, the label is true (1); if not, the label is false (0).

>  <molecule>
CO[C@H]1C[C@@H]2CC[C@@H](C)[C@@](O)(O2)C(=O)C(=O)N2CCCC[C@H]2C(=O)O[C@H]([C@H](C)C[C@@H]2CC[C@@H](OC(=O)C(C)(CO)CO)[C@H](OC)C2)CC(=O)[C@H](C)/C=C(\C)[C@@H](O)[C@@H](OC)C(=O)[C@H](C)C[C@H](C)/C=C/C=C/C=C/1C

>  <group>
true (1)

$$$$
>  <molecule>
COC1=C(OC)C(=O)C(C/C=C(\C)CC/C=C(\C)CC/C=C(\C)CC/C=C(\C)CC/C=C(\C)CC/C=C(\C)CC/C=C(\C)CC/C=C(\C)CC/C=C(\C)CCC=C(C)C)=C(C)C1=O

>  <group>
true (1)

$$$$
>  <molecule>
COc1ccc([C@@H]2CC(=O)c3c(O)cc(O[C@@H]4O[C@H](CO[C@@H]5O[C@@H](C)[C@H](O)[C@@H](O)[C@H]5O)[C@@H](O)[C@H](O)[C@H]4O)cc3O2)cc1O

>  <group>
true (1)

$$$$
>  <molecule>
CC(C)Cc1ccc([C@@H](C)C(=O)NS(C)(=O)=O)cc1

>  <group>
false (0)

$$$$
>  <molecule>
C[C@H]1O[C@@H](O[C@H]2[C@@H](O)C[C@H](O[C@H]3[C@@H](O)C[C@H](O[C@H]4CC[C@@]5(C)[C@H](CC[C@@H]6[C@@H]5C[C@@H](O)[C@]5(C)[C@@H](C7=CC(=O)OC7)CC[C@]65O)C4)O[C@@H]3C)O[C@@H]2C)C[C@H](O)[C@@H]1O

>  <group>
true (1)

$$$$
>  <molecule>
CNC(=O)[C@H](Cc1c[nH]c2ccccc12)NC(=O)[C@@H](CC(=O)NO)CC(C)C

>  <group>
false (0)

$$$$
>  <molecule>
Oc1ccc(/C=C/c2cc(O)cc(O)c2)cc1

>  <group>
false (0)

$$$$
>  <molecule>
CN[C@@H]1[C@@H](O)[C@@H](O[C@@H]2[C@@H](O)[C@H](O[C@H]3O[C@H](CN)[C@@H](O)[C@H](O)[C@H]3O)[C@@H](N)C[C@H]2NC(=O)C(O)CN)OC[C@]1(C)O (stereo partly specified)

>  <group>
true (1)

$$$$
>  <molecule>
C=C1[C@H](CO)[C@@H](O)C[C@@H]1n1cnc2c(=O)[nH]c(N)nc21

>  <group>
false (0)

$$$$
>  <molecule>
C=CC[N+]1([C@H]2C[C@H]3[C@@H]4CC[C@H]5C[C@H](O)[C@@H](N6CCOCC6)C[C@]5(C)[C@H]4CC[C@]3(C)[C@H]2OC(C)=O)CCCC1

>  <group>
false (0)

$$$$
>  <molecule>
CC[C@H]1OC(=O)[C@H](C)[C@@H](O[C@H]2C[C@@](C)(OC)[C@@H](O)[C@H](C)O2)[C@H](C)[C@@H](O[C@@H]2O[C@H](C)C[C@H](N(C)C)[C@H]2O)[C@](C)(O)C[C@@H](C)CN(C)[C@H](C)[C@@H](O)[C@]1(C)O

>  <group>
false (0)

$$$$
